This collection of values is drawn from PubChem BioAssay AID489030.

Biological target: Apoptotic protease-activating factor 1 (Homo sapiens) (UniProt O14727)
Sequence (O14727 whole entry, looked up): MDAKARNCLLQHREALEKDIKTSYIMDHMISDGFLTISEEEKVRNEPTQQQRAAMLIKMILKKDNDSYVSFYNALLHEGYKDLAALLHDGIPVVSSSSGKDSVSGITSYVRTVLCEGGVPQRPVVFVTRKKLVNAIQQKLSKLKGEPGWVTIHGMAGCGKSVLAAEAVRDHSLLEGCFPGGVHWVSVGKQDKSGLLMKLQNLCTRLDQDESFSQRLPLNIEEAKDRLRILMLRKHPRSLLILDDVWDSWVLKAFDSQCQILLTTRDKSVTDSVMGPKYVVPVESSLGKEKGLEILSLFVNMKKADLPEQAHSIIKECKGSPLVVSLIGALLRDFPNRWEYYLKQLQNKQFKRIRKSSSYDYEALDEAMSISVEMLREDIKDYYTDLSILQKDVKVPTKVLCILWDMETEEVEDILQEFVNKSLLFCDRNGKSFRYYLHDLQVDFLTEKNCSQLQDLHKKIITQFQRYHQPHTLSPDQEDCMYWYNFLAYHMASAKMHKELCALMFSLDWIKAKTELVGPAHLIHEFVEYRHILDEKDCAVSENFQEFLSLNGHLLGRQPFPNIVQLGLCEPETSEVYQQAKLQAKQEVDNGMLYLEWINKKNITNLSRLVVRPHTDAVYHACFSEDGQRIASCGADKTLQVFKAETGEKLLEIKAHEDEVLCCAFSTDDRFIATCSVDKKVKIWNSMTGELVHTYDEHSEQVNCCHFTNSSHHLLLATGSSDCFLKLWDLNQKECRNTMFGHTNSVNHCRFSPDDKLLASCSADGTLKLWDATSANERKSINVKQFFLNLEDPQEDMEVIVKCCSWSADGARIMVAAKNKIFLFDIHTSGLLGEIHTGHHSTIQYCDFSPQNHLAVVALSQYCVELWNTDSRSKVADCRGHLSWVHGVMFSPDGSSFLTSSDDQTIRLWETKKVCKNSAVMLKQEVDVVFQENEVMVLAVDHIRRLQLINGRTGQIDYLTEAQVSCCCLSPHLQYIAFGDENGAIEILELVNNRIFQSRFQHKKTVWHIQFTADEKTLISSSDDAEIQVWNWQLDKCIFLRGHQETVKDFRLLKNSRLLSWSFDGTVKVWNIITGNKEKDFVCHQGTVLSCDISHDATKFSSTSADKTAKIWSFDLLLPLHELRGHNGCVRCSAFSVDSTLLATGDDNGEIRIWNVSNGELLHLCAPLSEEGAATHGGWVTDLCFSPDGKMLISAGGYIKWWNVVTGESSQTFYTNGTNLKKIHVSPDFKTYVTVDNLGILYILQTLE
Assay: blockers of Apaf-1-driven caspase-3 activation – biochemical, DEVD-Rh110 fluorescence, uHTS, primary screen (AID 489030);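 also: plate controls were DMSO wells for no effect and DEVD-CHO caspase inhibitor wells for full effect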
Details: reconstituted apoptosome caspase-3 activity, at 20 µM, hits give high values
Among all 330,000 compounds or so, about 2,400 (0.73%) were called active. What follows is part of a selection rich in actives, with near analogues and random picks from the rest.
measurement.label: inhibition (%)
Entry rule: numbers only, all in %.

For orientation, consider the following solved cases.
> print(dat)
                               smiles.input                             tested.system  display.unit  readout.value
1  C=CCN1C(=O)NC(=O)/C(=C/c2ccc(OCC(=O)Nc3ccc(C)cc3)cc2)C1=O  Apoptotic protease-activating factor 1 (Homo sapiens) (UniProt O14727)             %            8.4
2  COC(=O)C1=C(c2c(C)noc2C)C[C@@H]2CC[C@H]1N2C(=O)NCc1ccc2c(c1)OCO2  Apoptotic protease-activating factor 1 (Homo sapiens) (UniProt O14727)             %           1.57
3         CCCn1c(C(=O)c2ccccc2OC)nc2ccccc21  Apoptotic protease-activating factor 1 (Homo sapiens) (UniProt O14727)             %           6.27

Give Apoptotic protease-activating factor 1 (Homo sapiens) (UniProt O14727) inhibition for the following molecule: COC(=O)C1=C(c2ccccc2)C[C@@H]2CC[C@H]1N2C(=O)NCc1ccco1 3.27

// output inhibition; input O=C(Cc1ccc(Cl)cc1)NCCN1CCN(C(=O)Cc2ccc(Cl)cc2)CC1 ; system Apoptotic protease-activating factor 1 (Homo sapiens) (UniProt O14727) -6.49

Report inhibition on Apoptotic protease-activating factor 1 (Homo sapiens) (UniProt O14727) for this entry: CCOC(=O)c1c(N)n(Cc2ccccc2)c2nc3ccccc3nc12 79.9
